Target: human recombinant 5-HT transporter (SERT) (Homo sapiens, UniProt P31645)
Sequence (P31645 whole entry): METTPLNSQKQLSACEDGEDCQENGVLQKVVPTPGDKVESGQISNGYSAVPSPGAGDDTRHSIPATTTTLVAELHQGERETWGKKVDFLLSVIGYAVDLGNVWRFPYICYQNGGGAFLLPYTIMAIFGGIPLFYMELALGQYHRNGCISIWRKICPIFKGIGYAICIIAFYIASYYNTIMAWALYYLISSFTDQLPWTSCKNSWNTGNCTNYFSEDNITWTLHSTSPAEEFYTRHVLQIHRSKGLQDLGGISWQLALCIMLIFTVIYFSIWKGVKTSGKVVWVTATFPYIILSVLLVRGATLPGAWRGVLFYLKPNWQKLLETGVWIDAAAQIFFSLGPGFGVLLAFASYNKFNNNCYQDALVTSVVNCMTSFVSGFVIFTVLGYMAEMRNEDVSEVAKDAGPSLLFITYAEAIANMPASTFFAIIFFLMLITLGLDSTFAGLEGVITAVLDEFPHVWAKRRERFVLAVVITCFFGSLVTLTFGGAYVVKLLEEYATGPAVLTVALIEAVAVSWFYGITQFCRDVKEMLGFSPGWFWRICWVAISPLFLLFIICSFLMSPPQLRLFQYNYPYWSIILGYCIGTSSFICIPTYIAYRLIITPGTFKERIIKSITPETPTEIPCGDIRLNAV
Assay: biochemical
// reported pKi for each item listed
Units for pKi: none; it is -log10 of a concentration expressed in mol/L.

Lab note: need pKi with human recombinant 5-HT transporter (SERT) (Homo sapiens, UniProt P31645) for entry O=C1CN2c3c(cccc3[C@@H]3CN(CCCOc4ccc(F)c(F)c4)CC[C@@H]32)N1 [compound 39] , please look it up. 6.29

Now look at this entry.
Lab note: need pKi with human recombinant 5-HT transporter (SERT) (Homo sapiens, UniProt P31645) for entry O=C1CN2c3c(cccc3[C@@H]3CN(CCCc4n[nH]c5cc(F)ccc45)CC[C@@H]32)N1 [compound 24] , please look it up. 6.27

###

// reported inhibition at 0.1 µM for each item listed
Molecular target: human full-length recombinant serotonin 5-HT2A receptors (Homo sapiens, UniProt P28223)
Construct: human full-length recombinant serotonin 5-HT2A receptors expressed in HEK-293E cells
Sequence (P28223 whole entry): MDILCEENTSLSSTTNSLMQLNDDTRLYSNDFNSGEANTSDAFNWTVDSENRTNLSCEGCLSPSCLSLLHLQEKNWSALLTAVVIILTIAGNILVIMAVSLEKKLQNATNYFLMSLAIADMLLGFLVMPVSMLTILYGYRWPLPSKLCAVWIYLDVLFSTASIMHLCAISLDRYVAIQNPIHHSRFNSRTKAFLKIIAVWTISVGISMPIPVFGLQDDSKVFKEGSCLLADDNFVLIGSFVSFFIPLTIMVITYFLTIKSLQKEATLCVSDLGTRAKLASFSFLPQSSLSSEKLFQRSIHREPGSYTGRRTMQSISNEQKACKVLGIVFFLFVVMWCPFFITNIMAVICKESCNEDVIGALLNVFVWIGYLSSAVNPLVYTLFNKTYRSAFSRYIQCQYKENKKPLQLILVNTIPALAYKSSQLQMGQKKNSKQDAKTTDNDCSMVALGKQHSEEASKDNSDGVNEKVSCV
Test: biochemical
Assay type: binding
Conditions: read-out: 5-HT2A % inhibition
Write the answer as a number in %, unit excluded.

Illustrative cases are given below, each with its answer.
I'd like to know its inhibition at 0.1 µM. The molecule in question is O=C1CN2c3c(cccc3[C@@H]3CN(CCCCOc4ccc(F)cc4)CC[C@@H]32)N1 37

I'd like to know its inhibition at 0.1 µM. The molecule in question is CN(CCCN1CC[C@H]2[C@@H](C1)c1cccc3c1N2CC(=O)N3)c1ccc(F)cc1 76

I'd like to know its inhibition at 0.1 µM. The molecule in question is Cc1ccc(OCCCN2CC[C@H]3[C@@H](C2)c2cccc4c2N3CC(=O)N4)cc1 62

I'd like to know its inhibition at 0.1 µM. The molecule in question is O=C1CN2c3c(cccc3[C@@H]3CN(CCCOc4ccc(OCc5ccccc5)cc4)CC[C@@H]32)N1 76

I'd like to know its inhibition at 0.1 µM. The molecule in question is O=C1CN2c3c(cccc3[C@@H]3CN(CCCS(=O)(=O)c4ccc(F)cc4)CC[C@@H]32)N1 33

I'd like to know its inhibition at 0.1 µM. The molecule in question is O=C1CN2c3c(cccc3[C@@H]3CN(CCOc4ccc(F)cc4)CC[C@@H]32)N1 48

New cases:
I'd like to know its inhibition at 0.1 µM. The molecule in question is O=C1CN2c3c(cccc3[C@@H]3CN(CCCOc4ccccc4)CC[C@@H]32)N1 84

I'd like to know its inhibition at 0.1 µM. The molecule in question is CC1C(=O)Nc2cccc3c2N1[C@H]1CCN(CCCOc2ccc(F)cc2)C[C@@H]31 (stereo partly shown) 88

I'd like to know its inhibition at 0.1 µM. The molecule in question is Cc1cc(F)cc(C)c1OCCCN1CC[C@H]2[C@@H](C1)c1cccc3c1N2CC(=O)N3 40

I'd like to know its inhibition at 0.1 µM. The molecule in question is O=C1CN2c3c(cccc3[C@@H]3CN(CCCO)CC[C@@H]32)N1 8

###

Biological target: human recombinant dopamine D1 receptor (Homo sapiens)
Sequence (P21728 whole entry): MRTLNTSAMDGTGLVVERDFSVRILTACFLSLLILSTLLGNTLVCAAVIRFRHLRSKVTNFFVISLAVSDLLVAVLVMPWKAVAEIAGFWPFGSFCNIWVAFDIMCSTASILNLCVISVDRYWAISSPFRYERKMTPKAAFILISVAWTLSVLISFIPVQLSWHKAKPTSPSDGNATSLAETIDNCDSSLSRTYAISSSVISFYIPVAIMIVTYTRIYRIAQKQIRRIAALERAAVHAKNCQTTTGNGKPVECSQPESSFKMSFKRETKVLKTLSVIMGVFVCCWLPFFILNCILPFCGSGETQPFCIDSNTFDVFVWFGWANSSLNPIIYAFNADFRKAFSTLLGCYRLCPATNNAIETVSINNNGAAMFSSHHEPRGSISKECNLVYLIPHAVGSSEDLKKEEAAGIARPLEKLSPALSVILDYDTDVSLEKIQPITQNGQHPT
Experiment: Dopamine D1 receptor binding, [3H]SCH 23390 displacement
Conditions: inhibition at 100 nM; NI = no inhibition; read-out: D1 % inhibition
assay_readout: inhibition at 0.1 µM (%)
Write the answer as a number in %, unit excluded.

Illustrative cases are given below, each with its answer.
I'd like to know its inhibition at 0.1 µM. The molecule in question is Cc1ccc(OCCCN2CC[C@H]3[C@@H](C2)c2cccc4c2N3CC(=O)N4)cc1 13

I'd like to know its inhibition at 0.1 µM. The molecule in question is O=C1CN2c3c(cccc3[C@@H]3CN(CCCOc4ccc(OCc5ccccc5)cc4)CC[C@@H]32)N1 4.6

I'd like to know its inhibition at 0.1 µM. The molecule in question is O=C1CN2c3c(cccc3[C@@H]3CN(CCCCOc4ccc(F)cc4)CC[C@@H]32)N1 5.4

I'd like to know its inhibition at 0.1 µM. The molecule in question is O=C1CCN2c3c(cccc3[C@@H]3CN(CCCOc4ccc(F)cc4)CC[C@@H]32)N1 14

I'd like to know its inhibition at 0.1 µM. The molecule in question is O=C1CN2c3c(cccc3[C@@H]3CN(CCCOc4cccc(F)c4)CC[C@@H]32)N1 32

New cases:
I'd like to know its inhibition at 0.1 µM. The molecule in question is CC1C(=O)Nc2cccc3c2N1[C@H]1CCN(CCCOc2ccc(F)cc2)C[C@@H]31 (stereo partly shown) 26

I'd like to know its inhibition at 0.1 µM. The molecule in question is O=C1CN2c3c(cccc3[C@@H]3CN(CCCOc4ccccc4F)CC[C@@H]32)N1 18
